Give melting point for every item shown.

Previously resolved entries follow.
Compound	Value Reported
CCSc1nnc(N)s1	133 to 136 °C
COc1ccc(NC(=S)NNC(=O)c2nn(-c3ccccc3)nc2C)cc1	206 to 207 °C
Cn1ccc2cc(N=C=O)ccc21	42.5 to 44.5 °C

Now consider the entry below.
Record request: melting point value, item O=C(c1ccc(Cl)cc1)C(Br)c1ccccc1 (centres undefined) 65 to 66 °C

###

Field 'label' (enum: criterion met / criterion not met). Set to criterion met when melting point is strictly under 100 °C; else criterion not met.

Please review the following examples before continuing.
Molecule	Assigned Class
N#CC1=C(N)n2nc(C(F)(F)F)nc2NC1c1ccco1 (configuration not stated)	criterion not met
CCCCCCCCCCCCN1c2ccccc2C(C)(C)C12C=Cc1cc([N+](=O)[O-])ccc1O2 (configuration not stated)	criterion not met
Cc1ccc(Cl)cc1C	criterion met
O=C1OC(Cl)c2ccccc21 (configuration not stated)	criterion met
O=C1c2ccccc2CC2c3ccccc3CCN12 (configuration not stated)	criterion not met
Cc1nc(-c2cc(CO)no2)cs1	criterion not met
O=Cc1cn2ccsc2n1	criterion met
Cc1ccc(S(N)(=O)=O)cc1Cl	criterion not met
NS(=O)(=O)c1cccc(Cl)c1Cl	criterion not met
C[C@]1(O)C#CCCCCC#C[C@](C)(O)CC1	criterion not met

Could you please tell me whether melting point recorded for Nc1ccc(S(=O)(=O)Nc2cnc3ccccc3n2)cc1 is less than 100 °C? criterion not met

Please let me know if CC1CC(N(C)C)C(O)C(OC2C(C)CC(C)C(=O)C=CC(C)C(C(C)O)OC(=O)C2C)O1 (configuration not stated) shows melting point below 100 °C. criterion not met

These measurements were taken from a melting point compilation (Tetko et al.).
